Reported normalized growth values are given for each entry in this list.
Experiment: chemical genetic growth profiling, strain panel (AID 1159580);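 further: tested at 20 µM; growth read once vehicle control cultures reached saturation at 30 °C; 1 = growth at the plate median or of vehicle wells; lower values mean less growth of the strain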
Conditions: S. cerevisiae deletion strains, growth OD, locus YAL013W, strain DEP1, stronger effect = lower value
About 2,000 (36%) of roughly 5,500 compounds were called active. Roughly 18% stayed inconclusive and do not appear here. The list shows a part of the results.
Measured attribute: normalized growth

INSERT INTO measurements (cpd_smiles, measured_attribute, reading) VALUES
  ('Cc1cc(NS(=O)(=O)c2ccc(NC(=O)c3ccccc3)cc2)no1', 'normalized growth', 0.988),
  ('CCCc1ccc(/C(C)=N\O)cc1', 'normalized growth', 0.939),
  ('O=C(CCc1ccc(O)cc1)c1c(O)cc(O)cc1O', 'normalized growth', 1.01),
  ('Cn1nccc1NS(=O)(=O)c1ccc(C(C)(C)C)cc1', 'normalized growth', 0.982),
  ('Cc1cccc(NC(=O)c2ccccc2)c1', 'normalized growth', 0.961),
  ('O=C(O)c1ccccc1Sc1c(C(=O)O)cc([N+](=O)[O-])cc1[N+](=O)[O-]', 'normalized growth', 1.01),
  ('O=[N+]([O-])c1cc(C(F)(F)F)cc([N+](=O)[O-])c1Oc1ccc(Cl)c(Cl)c1', 'normalized growth', 0.0591),
  ('CC(=O)c1ccc(Sc2ccccn2)c([N+](=O)[O-])c1', 'normalized growth', 0.996),
  ('O=C(Nc1cc(-c2ccccc2)[nH]n1)c1ccccc1', 'normalized growth', 0.938),
  ('O=[N+]([O-])c1cc(Cl)c(Sc2ccccc2)cc1Sc1ccccc1', 'normalized growth', 0.995),
  ('CCCN(CCC)c1c([N+](=O)[O-])cc(C(F)(F)F)cc1[N+](=O)[O-]', 'normalized growth', 1.02);
